clearance values, listed per item
# experimentSummary: Clearance in Wistar Han rat at 1 umol/kg, iv administered as bolus dose by LC-MS/MS analysis
# Type: ADME, organism-based
# conditionParameters: in vivo
Entry rule: numbers only, all in mL/min/kg.

- compound: "C[C@H](NC(=O)C(C)(F)F)[C@H](Oc1ccc2c(cnn2-c2cccc(C(=O)NCc3cccnc3)c2)c1)c1ccc2c(c1)OCOC2"
  metricName: "clearance"
  unitOfMeasurement: "mL/min/kg"
  valueMeasured: 73
- compound: "CCC(=O)O[C@]1(C(=O)SCF)[C@H](C)C[C@H]2[C@@H]3C[C@H](F)C4=CC(=O)C=C[C@]4(C)[C@@]3(F)[C@@H](O)C[C@@]21C [FLUTICASONE PROPIONATE]"
  metricName: "clearance"
  unitOfMeasurement: "mL/min/kg"
  valueMeasured: 103
- compound: "C[C@H](NC(=O)C(C)(F)F)[C@H](Oc1ccc2c(cnn2-c2ccc(F)cc2)c1)c1ccc2c(c1)OCCO2"
  metricName: "clearance"
  unitOfMeasurement: "mL/min/kg"
  valueMeasured: 42

Req: // returns reported clearance for input COc1cccc([C@@H](Oc2ccc3c(cnn3-c3ccc(F)cc3)c2)[C@H](C)NC(=O)C(F)(F)F)c1
Resp: 38

Req: Query (compound): C[C@H](NC(=O)C(C)(F)F)[C@H](Oc1ccc2c(cnn2-c2cccc(C(=O)NCc3cccnc3)c2)c1)c1ccc2c(c1)OCCO2 ; field requested: clearance
Resp: 68

Req: Given the compound C[C@H](NC(=O)C(C)(F)F)[C@H](Oc1ccc2c(cnn2-c2cccc(C(=O)N[C@@H]3CCOC3)c2)c1)c1ccc2c(c1)OCCO2 , what is its reported clearance?
Resp: 30

---

# experimentSummary: AUC (0 to infinity) in Wistar Han rat lung at 0.1 umol/kg, administered via intratracheal instillation by LC-MS/MS analysis
# Format: ADME, tissue-based
# Design: dose 0.1 umol/kg, time infinity
# conditionParameters: inhaled or intranasal
metricName: AUC(0-inf) (µM·h)
// note: answer is a bare numeric in µM·h

Req: Please give the measured AUC(0-inf) for this molecule: C[C@H](NC(=O)C(C)(F)F)[C@H](Oc1ccc2c(cnn2-c2ccc(F)cc2)c1)c1ccc2c(c1)OCCO2
Resp: 12

---

# experimentSummary: Lipophilicity, log D of the compound by chromatography
# Format: physicochemical
Mark 1 only for chromatographic logD values smaller than 4; exact matches and larger values are 0.

- compound: "C[C@H](NC(=O)C(C)(F)F)[C@H](Oc1ccc2c(cnn2-c2cccc(C(=O)N3CCC[C@H]3C(N)=O)c2)c1)c1ccccc1"
  groupLabel: 1
- compound: "CCC(=O)O[C@]1(C(=O)SCF)[C@H](C)C[C@H]2[C@@H]3C[C@H](F)C4=CC(=O)C=C[C@]4(C)[C@@]3(F)[C@@H](O)C[C@@]21C [FLUTICASONE PROPIONATE]"
  groupLabel: 0
- compound: "C[C@H](NC(=O)C(F)(F)F)[C@H](Oc1ccc2c(cnn2-c2ccc(F)cc2)c1)c1ccccc1"
  groupLabel: 0
- compound: "COc1cccc([C@@H](Oc2ccc3c(cnn3-c3ccc(F)cc3)c2)[C@H](C)NC(=O)C(F)(F)F)c1"
  groupLabel: 0
- compound: "C[C@H](NC(=O)C(C)(F)F)[C@H](Oc1ccc2c(cnn2-c2cccc(C(=O)N3CCC[C@@H]3C(N)=O)c2)c1)c1ccc2c(c1)OCCO2"
  groupLabel: 1

We now examine a further compound.
Req: Here's an entry: C[C@H](NC(=O)C(C)(F)F)[C@H](Oc1ccc2c(cnn2-c2cccc(C(=O)NCc3cccnc3)c2)c1)c1ccc2c(c1)OCOC2 . Is its chromatographic logD below 4?
Resp: 1
